assayText: isobaric coefficient of expansion
testConditions: 278.15 K; 5000 kPa; Liquid; DSC with Pressure Shift
Overview of recorded isobaric coefficient of expansion for various compounds

compound: CCCCCCCO [heptan-1-ol]
isobaric coefficient of expansion: 0.000799 1/K
//
compound: CCCO [propan-1-ol]
isobaric coefficient of expansion: 0.000927 1/K
//
compound: CCCCCCO [hexan-1-ol]
isobaric coefficient of expansion: 0.000821 1/K
//
compound: CCCCCO [pentan-1-ol]
isobaric coefficient of expansion: 0.000863 1/K
//
compound: CCCCCN [1-pentanamine]
isobaric coefficient of expansion: 0.00109 1/K
//
compound: CCO [ethanol]
isobaric coefficient of expansion: 0.00102 1/K
//
compound: CCCC(C)O (stereo not given) [pentan-2-ol]
isobaric coefficient of expansion: 0.000883 1/K
//
compound: CCCCCCCCO [octan-1-ol]
isobaric coefficient of expansion: 0.000816 1/K
//
compound: CCC(O)CC [3-pentanol]
isobaric coefficient of expansion: 0.000898 1/K
//
compound: CCCCCCCCCO [nonan-1-ol]
isobaric coefficient of expansion: 0.000819 1/K

---

assayText: isobaric coefficient of expansion
testConditions: 318.15 K; 30000 kPa; Liquid; DSC with Pressure Shift

compound: CCCCCCCCCCO
isobaric coefficient of expansion: 0.000743 1/K
--
compound: CCCCCO
isobaric coefficient of expansion: 0.000814 1/K
--
compound: CCCCCCCCCO
isobaric coefficient of expansion: 0.000748 1/K
--
compound: CCCC(C)O (stereo unspecified)
isobaric coefficient of expansion: 0.000923 1/K
--
compound: CCO
isobaric coefficient of expansion: 0.000966 1/K
--
compound: CCCCCN
isobaric coefficient of expansion: 0.00101 1/K
--
compound: CCCO
isobaric coefficient of expansion: 0.000899 1/K
--
compound: CCC(O)CC
isobaric coefficient of expansion: 0.000952 1/K
--
compound: CCCCCCCCO
isobaric coefficient of expansion: 0.000758 1/K
--
compound: CCCCCCCO
isobaric coefficient of expansion: 0.000775 1/K
--
compound: CCCCCCO
isobaric coefficient of expansion: 0.000794 1/K

---

The following compounds are listed with their measured isobaric coefficient of expansion values.
assayText: isobaric coefficient of expansion
testConditions: 318.15 K; 55000 kPa; Liquid; DSC with Pressure Shift

compound: CCCCCO
isobaric coefficient of expansion: 0.000731 1/K

compound: CCCC(C)O (stereo not drawn)
isobaric coefficient of expansion: 0.000819 1/K

compound: CCCCCCO
isobaric coefficient of expansion: 0.000719 1/K

---

assayText: isobaric coefficient of expansion
testConditions: 348.15 K; 55000 kPa; Liquid; DSC with Pressure Shift
Below, each entry is listed alongside its reported isobaric coefficient of expansion.

molecule: CCO [ethanol]
isobaric coefficient of expansion: 0.000915 1/K
//
molecule: CCCC(C)O (stereo not drawn) [pentan-2-ol]
isobaric coefficient of expansion: 0.000888 1/K
//
molecule: CCCO [propan-1-ol]
isobaric coefficient of expansion: 0.000861 1/K
//
molecule: CCCCCCCO [heptan-1-ol]
isobaric coefficient of expansion: 0.000737 1/K
//
molecule: CCC(O)CC [3-pentanol]
isobaric coefficient of expansion: 0.000936 1/K
//
molecule: CCCCCCCCCCO [decan-1-ol]
isobaric coefficient of expansion: 0.000697 1/K
//
molecule: CCCCCN [1-pentanamine]
isobaric coefficient of expansion: 0.000891 1/K
//
molecule: CCCCCO [pentan-1-ol]
isobaric coefficient of expansion: 0.000768 1/K

---

assayText: isobaric coefficient of expansion
testConditions: 308.15 K; 30000 kPa; Liquid; DSC with Pressure Shift

molecule: CCC(O)CC
isobaric coefficient of expansion: 0.000919 1/K
--
molecule: CCCC(C)O (stereo unspecified)
isobaric coefficient of expansion: 0.000889 1/K
--
molecule: CCCCCCCCCCO
isobaric coefficient of expansion: 0.00073 1/K
--
molecule: CCCCCN
isobaric coefficient of expansion: 0.00101 1/K
--
molecule: CCCCCCO
isobaric coefficient of expansion: 0.000779 1/K
--
molecule: CCCCCCCO
isobaric coefficient of expansion: 0.000761 1/K
--
molecule: CCCO
isobaric coefficient of expansion: 0.000882 1/K
--
molecule: CCCCCCCCO
isobaric coefficient of expansion: 0.000746 1/K
--
molecule: CCO
isobaric coefficient of expansion: 0.000944 1/K
--
molecule: CCCCCCCCCO
isobaric coefficient of expansion: 0.000736 1/K
--
molecule: CCCCCO
isobaric coefficient of expansion: 0.000796 1/K

---

Quick reference: isobaric coefficient of expansion of the listed items.
assayText: isobaric coefficient of expansion
testConditions: 288.15 K; 55000 kPa; Liquid; DSC with Pressure Shift

molecule: CCCC(C)O (stereo not given)
isobaric coefficient of expansion: 0.000745 1/K
//
molecule: CCCCCCCCCO
isobaric coefficient of expansion: 0.000677 1/K
//
molecule: CCCCCO
isobaric coefficient of expansion: 0.000713 1/K
//
molecule: CCCCCCCO
isobaric coefficient of expansion: 0.000686 1/K
//
molecule: CCCCCN
isobaric coefficient of expansion: 0.0009 1/K
//
molecule: CCCCCCCCO
isobaric coefficient of expansion: 0.000671 1/K
//
molecule: CCO
isobaric coefficient of expansion: 0.000831 1/K
//
molecule: CCCO
isobaric coefficient of expansion: 0.000775 1/K
//
molecule: CCC(O)CC
isobaric coefficient of expansion: 0.000771 1/K
//
molecule: CCCCCCO
isobaric coefficient of expansion: 0.000696 1/K

---

assayText: isobaric coefficient of expansion
testConditions: 318.15 K; 45000 kPa; Liquid; DSC with Pressure Shift
Measured isobaric coefficient of expansion accompanies every entry in the list below.
metric: isobaric coefficient of expansion

molecule: CCO [ethanol]
recordedMeasurement: 0.000898 1/K
//
molecule: CCCCCCCCCCO [decan-1-ol]
recordedMeasurement: 0.000699 1/K
//
molecule: CCCCCN [1-pentanamine]
recordedMeasurement: 0.000947 1/K
//
molecule: CCCCCCO [hexan-1-ol]
recordedMeasurement: 0.000745 1/K
//
molecule: CCCC(C)O (stereo unspecified) [pentan-2-ol]
recordedMeasurement: 0.00086 1/K
//
molecule: CCCCCCCCCO [nonan-1-ol]
recordedMeasurement: 0.000702 1/K
//
molecule: CCCCCO [pentan-1-ol]
recordedMeasurement: 0.000759 1/K
//
molecule: CCC(O)CC [3-pentanol]
recordedMeasurement: 0.000897 1/K
//
molecule: CCCO [propan-1-ol]
recordedMeasurement: 0.000839 1/K
//
molecule: CCCCCCCO [heptan-1-ol]
recordedMeasurement: 0.00073 1/K
//
molecule: CCCCCCCCO [octan-1-ol]
recordedMeasurement: 0.000711 1/K

---

assayText: isobaric coefficient of expansion
testConditions: 288.15 K; 15000 kPa; Liquid; DSC with Pressure Shift
// reported isobaric coefficient of expansion per item
metric: isobaric coefficient of expansion

molecule: CCCCCO
metric: isobaric coefficient of expansion
recordedMeasurement: 0.000831 1/K
--
molecule: CCO
metric: isobaric coefficient of expansion
recordedMeasurement: 0.000983 1/K
--
molecule: CCCCCCCO
metric: isobaric coefficient of expansion
recordedMeasurement: 0.000784 1/K
--
molecule: CCCCCCCCCO
metric: isobaric coefficient of expansion
recordedMeasurement: 0.000772 1/K
--
molecule: CCCCCN
metric: isobaric coefficient of expansion
recordedMeasurement: 0.00106 1/K
--
molecule: CCC(O)CC
metric: isobaric coefficient of expansion
recordedMeasurement: 0.000898 1/K
--
molecule: CCCCCCCCO
metric: isobaric coefficient of expansion
recordedMeasurement: 0.000774 1/K
--
molecule: CCCO
metric: isobaric coefficient of expansion
recordedMeasurement: 0.000902 1/K
--
molecule: CCCC(C)O (stereo not given)
metric: isobaric coefficient of expansion
recordedMeasurement: 0.00088 1/K
--
molecule: CCCCCCO
metric: isobaric coefficient of expansion
recordedMeasurement: 0.000802 1/K

---

assayText: isobaric coefficient of expansion
testConditions: 348.15 K; 20000 kPa; Liquid; DSC with Pressure Shift
metric: isobaric coefficient of expansion

molecule: CCCCCCO
metric: isobaric coefficient of expansion
recordedMeasurement: 0.000903 1/K
--
molecule: CCCCCN
metric: isobaric coefficient of expansion
recordedMeasurement: 0.0011 1/K
--
molecule: CCCCCCCCCO
metric: isobaric coefficient of expansion
recordedMeasurement: 0.000827 1/K
--
molecule: CCCCCCCCCCO
metric: isobaric coefficient of expansion
recordedMeasurement: 0.000812 1/K
--
molecule: CCCCCCCCO
metric: isobaric coefficient of expansion
recordedMeasurement: 0.000843 1/K
--
molecule: CCCCCCCO
metric: isobaric coefficient of expansion
recordedMeasurement: 0.000872 1/K
--
molecule: CCC(O)CC
metric: isobaric coefficient of expansion
recordedMeasurement: 0.00111 1/K
--
molecule: CCCC(C)O (stereo unspecified)
metric: isobaric coefficient of expansion
recordedMeasurement: 0.00108 1/K
--
molecule: CCO
metric: isobaric coefficient of expansion
recordedMeasurement: 0.00112 1/K
--
molecule: CCCO
metric: isobaric coefficient of expansion
recordedMeasurement: 0.00105 1/K
--
molecule: CCCCCO
metric: isobaric coefficient of expansion
recordedMeasurement: 0.000927 1/K
